Catalogue of growth values
system: MCF7 breast; test: NCI-60 one-dose screen, 48 h (100 = growth as untreated, 0 = no growth, -100 = all killed); conditions: 10 µM unless noted
Compounds without any hit were thinned out: in the full panel of roughly 83,000, 20% have a hit.
Form entry: value (%) — number only.

// below: answered compounds
CC(C)CC(NC(=O)OCC1c2ccccc2-c2ccccc21)C(=O)O (stereo not given) | 89.4
COc1ccc2[nH]cc(C(c3ccc(Cl)cc3)N3CCCC3)c2c1 (stereo not given) | 89.3
CSC1=NC(=Nc2c(C)cccc2C)C2(CCC(C(C)(C)C)CC2)N1c1ccc(Cl)cc1 (stereo not given) | 43
C=CCn1c(C)nc2cc(Nc3nc(N4CCOCC4)nc4nc[nH]c34)ccc21 | 86.5

Note: attention shifts to another entry.
Task item: # input compound: CCOC(=O)C1=C(C)NC(SCc2nnc(-c3ccc(Cl)cc3)o2)=NC1c1ccc(Cl)cc1 (stereo not given) ; wanted: its growth
Reply: 49

----------
system: A498 renal; experiment: NCI-60 one-dose screen, 48 h (100 = growth as untreated, 0 = no growth, -100 = all killed); conditions: 10 µM unless noted
About 83,000 compounds went through this panel and 20% of them were active in at least one assay; those are over-represented in the sample as a whole.
Mark TRUE for reported growth of 20% or greater; mark FALSE for anything smaller.

Before answering, review these 4 worked examples.
O=C1C2=C(C(=O)c3c(O)ccc(O)c31)N(c1ccc(N3CCOCC3)nc1)Cc1ccccc1O2 | FALSE
Cc1cc(C)c2c(NC(=O)Nc3ccc(Cl)c(Cl)c3)n[nH]c2n1 | TRUE
COc1ccc(-c2n[nH]nc2-c2cc(OC)c3c(c2)OCO3)cc1 | FALSE
COc1ccc(C2C3=C(COC3=O)N(CCO)c3cc(OC)c(OC)cc32)cc1 (stereo not given) | TRUE

Attention now turns to another entry.
Task item: Is reported growth greater than or equal to 20% here: "CCN(CC)c1ccc2nc3c4ccccc4c(=O)cc-3n(-c3ccccc3)c2c1"
Reply: FALSE

----------
Catalogue of growth values
Tested on: HOP-62 NSCLC
Experiment: NCI-60 one-dose screen, 48 h (100 = growth as untreated, 0 = no growth, -100 = all killed)
Conditions: 10 µM unless noted
Description: Growth inhibition of the HOP-62 human Non-Small Cell Lung tumor cell line is measured as a screen for anti-cancer activity. Cells are grown in 96 well plates and exposed to the test compound for 48 hours. Compounds are tested at a single concentration, which is 10^-5 M for most compounds. The reported endpoint is percent growth (GI% or GIPRCNT), where numbers from 0 - 100% represent growth inhibition, and numbers from -100% - 0 represent cell death. […]
The panel holds about 83,000 compounds, 20% with a hit somewhere; the sample as a whole holds those more often.
Form entry: value (%) — number only.

// below: answered compounds
Nc1nc(N)c2cc(CNc3ccc(Cl)c(Cl)c3)ccc2n1 | 43.1
Cc1cc(NC(=O)c2ccc(N)cc2)ccc1N=Nc1ccc2cc(S(=O)(=O)O)cc(S(=O)(=O)O)c2c1 | 106
O=C(/C=C/c1ccccc1)C(Br)C(Br)c1ccccc1 (stereo unspecified) | 12.5
COc1ccc(NC(=O)/C=C/c2ccc(Cl)c(Cl)c2)cn1 | 90.1
COC(=O)c1cc(Cl)cc([N+](=O)[O-])c1O | 104
COc1c(-c2cc(-c3ccc(C)o3)[nH]c(=O)n2)c(O)cc2occc12 | 52.1
CCOC(C)(c1ccc(Cl)cc1)C1CCNCC1 (stereo unspecified) | 93.3
CCCc1n(Cc2ccc3ccccc3n2)cc[n+]1Cc1ccc2ccccc2n1 | 51.7
Brc1ccccc1Cn1c(-c2cncs2)nc2ccccc21 | 76
CNCc1cccc2c1OCCOCCOCCC(C)S(=O)(=O)c1ccc(cc1)-c1cnc(N)c(n1)C(=O)N2 (stereo unspecified) | 37.7

Task item: # input compound: "Cn1nc(C(F)(F)F)cc1-c1cc(Cl)c(OCc2ccc(Cl)cc2)c(-c2ccc(Cl)c(C(F)(F)F)c2)c1O" ; wanted: its growth
Reply: -28.6

Task item: "CN1CCN(Cc2ccc(NC(=O)c3cccc(C#Cc4cnc(N)c5ncccc45)c3F)cc2C(F)(F)F)CC1" ?
Reply: 49.4

Task item: "CC(=O)[C@H]1CC[C@H]2[C@@H]3CC[C@H]4CC=CC[C@]4(C)[C@H]3CC[C@]12C" ?
Reply: 109

Task item: "O=C(OCc1ccc2c(Cl)cc(Cl)c(O)c2n1)c1cc2ccccc2[nH]1" ?
Reply: -35.1

Task item: "C/C(=C\C(=N\N=C(N)N)c1ccc(Cl)cc1)c1ccc(Cl)cc1" ?
Reply: -86.3

Task item: Cc1cc(O)c(C2=NN(c3ccc(S(N)(=O)=O)cc3)C(c3ccc(Cl)cc3)C2)c(C)c1Cl (stereo unspecified) ?
Reply: 84.3

Task item: "c1ccc(C2=Nc3ccccc3SC2)cc1" ?
Reply: 113

Task item: "CCCCCCCCCCCCCCCC1=NCC[N+]1(CCO)CCO" ?
Reply: 57.7

Task item: "CC1(C)CC[C@]2(C(=O)N3CCNCC3)CC[C@]3(C)C(=CC[C@@H]4[C@@]5(C)CCC(=O)C(C)(C)[C@@H]5CC[C@]43C)[C@@H]2C1" ?
Reply: 97.3

Task item: "O=C(/C=C/c1cccc([N+](=O)[O-])c1)c1ccc(Nc2nc(N3CCCCC3)nc(N3CCCCC3)n2)cc1" ?
Reply: 105

Task item: "Clc1ccc2c(c1)-c1ccccc1C1=NCCN12" ?
Reply: 45.9

----------
system: COLO 205 colon; experiment: NCI-60 one-dose screen, 48 h (100 = growth as untreated, 0 = no growth, -100 = all killed); conditions: 10 µM unless noted
Compounds without any hit were thinned out: in the full panel of roughly 83,000, 20% have a hit.
Catalogue of growth values
Form entry: value (%) — number only.

// below: answered compounds
Cc1n(Cc2ccc3ccccc3n2)cc[n+]1Cc1ccc2ccccc2c1 | -38.4
COc1ccc(-c2nsc3c2NC(=O)CC3c2cccc(F)c2)cc1 (configuration not stated) | 25.8
CCOC(=O)C(Nc1ccccc1)C(=O)OCC | 119

Note: attention shifts to another entry.
Task item: # input compound: COc1ccc2c(c1)N(CCO)C1=C(C(=O)OC1)C2c1cccc(Br)c1 (configuration not stated) ; wanted: its growth
Reply: -47.2

----------
system: SNB-19 CNS; assay: NCI-60 one-dose screen, 48 h (100 = growth as untreated, 0 = no growth, -100 = all killed); conditions: 10 µM unless noted
The panel holds about 83,000 compounds, 20% with a hit somewhere; the sample as a whole holds those more often.
Catalogue of growth values
Form entry: value (%) — number only.

// below: answered compounds
Cc1ccccc1CNc1ncnc2[nH]ncc12 | 95.5
C#CC[C@@H]1C[C@]2(C)[C@H]3CC=C4[C@H]5CC(C)(C)CC[C@]5(C(=O)NCCCCN)CC[C@@]4(C)[C@]3(C)CC[C@H]2C(C)(C)[C@H]1OC(C)=O | 6.48
COc1ccc(NC(=O)c2ccc(C(F)(F)F)nc2Nc2ccc(Cl)cc2C)cc1Cl | 30

Task item: # input compound: "CCNS(=O)(=O)c1ccc(C)cc1" ; wanted: its growth
Reply: 103

Task item: "CCN(CC)CCCCCCCNc1cc(OC)cc2c(C)ccnc12" ?
Reply: 96.3

Task item: "CCCCCCCCCCCCCC[N+](C)(C)CCCCCCCCCCCCCC" ?
Reply: 70.4

----------
system: HOP-62 NSCLC; test: NCI-60 one-dose screen, 48 h (100 = growth as untreated, 0 = no growth, -100 = all killed); settings: 10 µM unless noted
The panel holds about 83,000 compounds, 20% with a hit somewhere; the sample as a whole holds those more often. The source made the active and inactive calls. How the source made its calls: active means growth percent below 10; inactive means the rest.
Quantity: growth

CC(COC(=O)c1ccccc1)N1CC2CCC(C1)O2 (configuration not stated) | 95.1% (inactive)
Fc1cnccc1-c1nc2ccc3[nH]ncc3c2c2c1CCCC2 | 21% (inactive)
COc1ccc2nc(NC(=O)/C(=C/c3cc(OC)c(OC)c(OC)c3)c3ccc(OC)c(OC)c3)sc2c1 | 87.8% (inactive)
CN1CCN(Cc2ccc(NC(=O)c3cncc(C#Cc4cnc5cccnn45)c3)cc2C(F)(F)F)CC1 | -6.79% (active)
N#Cc1c(N)n(C2OC(CO)C(O)C2O)c2ncnc(N)c12 (configuration not stated) | -12.7% (active)
Cc1cc(-c2nnc(/C=C/c3ccc4c(c3)OCO4)o2)n[nH]1 | 78.5% (inactive)

Task item: # input molecule: "COc1cc(OC)cc(-c2n/c(=C\c3c(O)[nH]c4ccc(Cl)cc34)cc3c2=Nc2ccccc2-3)c1" ; wanted: its growth
Reply: 72.5% (inactive)

Task item: "Cc1ccccc1CNc1ncnc2[nH]ncc12" ?
Reply: 99.3% (inactive)

Task item: "COc1cccc2nc(Nc3cccc(NC(=O)c4cc(N5CCOCC5)cc(C(F)(F)F)c4)c3)ccc12" ?
Reply: 78.6% (inactive)

Task item: CC(C)CC(NC(=O)C(CCCN=C(N)N)NC(=O)OCc1ccccc1)C(=O)NC(CNC(=O)/C=C/c1ccccc1)C(C)C (configuration not stated) ?
Reply: 107% (inactive)

Task item: "CN(C)c1ccc(/C=N/Nc2nnc3n2N=C(c2ccc(Cl)cc2)CS3)cc1" ?
Reply: 104% (inactive)

Task item: "CCOC(=O)c1ccc(NCCC(=O)O)cc1" ?
Reply: 95.9% (inactive)

Task item: "Clc1ccc(Nc2ncnc3c2sc2ncccc23)c(Cl)c1" ?
Reply: 1.95% (active)

Task item: "Cc1nc2c(-c3cnc(N)nc3)nc(N3CCOCC3)nc2n1C(C)C" ?
Reply: -12.7% (active)

Task item: "ClCc1cccc(CSc2ncnc3c2ncn3Cc2cccc(CCl)c2)c1" ?
Reply: -38.8% (active)

Task item: "O=c1cc(N2CCOCC2)oc2c(-c3ccc4c(c3)OCCO4)csc12" ?
Reply: 15.5% (inactive)

Task item: CC1CN(CCCOC(=O)Nc2ccc(Cl)cc2)CCN1C(C)(C)C (configuration not stated) ?
Reply: 112% (inactive)

Task item: "Cc1cc(C)c2c(n1)sc1c(Nc3ccc(OCc4ccccc4)cc3)ncnc12" ?
Reply: 101% (inactive)
